Biological target: T1, glutathione S-transferase (GST) (UniProt P08515 1-218 = GST)
T1 construct: also called carrier protein GST
T1 sequence (P08515 whole entry): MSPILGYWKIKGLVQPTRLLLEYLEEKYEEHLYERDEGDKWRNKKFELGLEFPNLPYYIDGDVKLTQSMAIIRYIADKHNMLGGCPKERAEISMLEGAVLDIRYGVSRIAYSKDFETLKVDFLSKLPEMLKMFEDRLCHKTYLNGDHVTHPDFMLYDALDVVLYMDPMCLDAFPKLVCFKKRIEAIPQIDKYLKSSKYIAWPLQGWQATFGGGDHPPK
Test: ELISA, Ab 0.000 µg/ml (blank)
quantity: A450 (A450)
Numbers only, in A450.

binder: rabbit monoclonal anti-mouse/human Id3, clone #BCH-4/#6-1 (antibody, V domains shown, Rabbit IgG from a rabbit hybridoma; also called m/h Id3 MoAb 6-1) VH: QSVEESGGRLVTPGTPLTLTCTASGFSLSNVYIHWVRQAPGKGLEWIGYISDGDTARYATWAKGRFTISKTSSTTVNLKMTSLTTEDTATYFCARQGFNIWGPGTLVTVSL VL: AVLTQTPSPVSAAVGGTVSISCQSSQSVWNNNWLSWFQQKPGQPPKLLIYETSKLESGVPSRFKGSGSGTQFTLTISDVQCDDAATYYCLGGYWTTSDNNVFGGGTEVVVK
quantity: A450
numeric readout: 0.047

I need A450 for every entry listed below, if you could help.
1. rabbit monoclonal anti-mouse/human Id3, clone #BCH-4/#17-3 (antibody, V domains shown, Rabbit IgG from a rabbit hybridoma; also called m/h Id3 MoAb 17-3; BCH-3/#17-3) VH: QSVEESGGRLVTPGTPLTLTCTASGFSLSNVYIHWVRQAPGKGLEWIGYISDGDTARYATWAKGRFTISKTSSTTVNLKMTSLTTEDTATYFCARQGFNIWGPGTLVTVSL VL: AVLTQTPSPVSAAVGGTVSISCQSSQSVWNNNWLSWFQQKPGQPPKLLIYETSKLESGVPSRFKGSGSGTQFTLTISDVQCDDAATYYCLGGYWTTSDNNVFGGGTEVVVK
2. rabbit monoclonal anti-mouse/human Id3, clone #BCH-4/#16-1 (antibody, V domains shown, Rabbit IgG from a rabbit hybridoma; also called m/h Id3 MoAb 16-1) VH: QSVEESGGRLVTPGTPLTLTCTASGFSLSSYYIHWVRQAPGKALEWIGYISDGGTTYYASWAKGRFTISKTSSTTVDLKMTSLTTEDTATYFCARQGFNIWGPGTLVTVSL VL: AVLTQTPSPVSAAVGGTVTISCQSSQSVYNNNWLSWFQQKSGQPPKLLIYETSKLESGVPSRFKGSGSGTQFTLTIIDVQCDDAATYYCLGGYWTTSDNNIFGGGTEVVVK
3. rabbit monoclonal anti-human Id3, clone #BCH-4/#3-3 (antibody, V domains shown, Rabbit IgG from a rabbit hybridoma; also called h Id3 MoAb 3-3) VH: QSVEESGGRLVTPGTPLTLTCTVSGIDLSSYAMSWVRQAPGKGLEWIGVIFPSNNVYYASWAKGRFTISKTSTTVDLKITSPTTEDTATYFCASMGAFDSWGPGTLVTVSS VL: QVLTQTPSPVSAAVGGTVTINCQASQSIYNDNDLAWFQQKPGQPPKLLIYDASTLTSGVPSRFKGSGSGTQFTLTISDLDCDDAATYYCAARYSGNIYGFGGGTEVVVK
4. rabbit monoclonal anti-mouse/human Id3, clone #BCH-4/#42-1 (antibody, V domains shown, Rabbit IgG from a rabbit hybridoma; also called m/h Id3 MoAb 42-1) VH: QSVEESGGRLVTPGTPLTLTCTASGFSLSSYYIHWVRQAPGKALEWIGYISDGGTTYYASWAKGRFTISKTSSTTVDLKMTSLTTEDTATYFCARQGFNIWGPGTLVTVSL VL: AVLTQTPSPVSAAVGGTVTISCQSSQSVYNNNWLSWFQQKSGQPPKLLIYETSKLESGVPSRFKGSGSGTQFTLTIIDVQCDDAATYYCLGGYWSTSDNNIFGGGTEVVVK

[0.046, 0.048, 0.044, 0.048]
